These data points were gathered from patent US20230219986A1.

Kindly supply the reported GI50 values for the records listed here.
Target: Ba/F3 L858R/T790M/C797S EGFR triple mutant cell line (Homo sapiens, UniProt P00533, T790M/C797S/L858R, cells depend on it)
Sequence (P00533 whole entry T790M/C797S/L858R): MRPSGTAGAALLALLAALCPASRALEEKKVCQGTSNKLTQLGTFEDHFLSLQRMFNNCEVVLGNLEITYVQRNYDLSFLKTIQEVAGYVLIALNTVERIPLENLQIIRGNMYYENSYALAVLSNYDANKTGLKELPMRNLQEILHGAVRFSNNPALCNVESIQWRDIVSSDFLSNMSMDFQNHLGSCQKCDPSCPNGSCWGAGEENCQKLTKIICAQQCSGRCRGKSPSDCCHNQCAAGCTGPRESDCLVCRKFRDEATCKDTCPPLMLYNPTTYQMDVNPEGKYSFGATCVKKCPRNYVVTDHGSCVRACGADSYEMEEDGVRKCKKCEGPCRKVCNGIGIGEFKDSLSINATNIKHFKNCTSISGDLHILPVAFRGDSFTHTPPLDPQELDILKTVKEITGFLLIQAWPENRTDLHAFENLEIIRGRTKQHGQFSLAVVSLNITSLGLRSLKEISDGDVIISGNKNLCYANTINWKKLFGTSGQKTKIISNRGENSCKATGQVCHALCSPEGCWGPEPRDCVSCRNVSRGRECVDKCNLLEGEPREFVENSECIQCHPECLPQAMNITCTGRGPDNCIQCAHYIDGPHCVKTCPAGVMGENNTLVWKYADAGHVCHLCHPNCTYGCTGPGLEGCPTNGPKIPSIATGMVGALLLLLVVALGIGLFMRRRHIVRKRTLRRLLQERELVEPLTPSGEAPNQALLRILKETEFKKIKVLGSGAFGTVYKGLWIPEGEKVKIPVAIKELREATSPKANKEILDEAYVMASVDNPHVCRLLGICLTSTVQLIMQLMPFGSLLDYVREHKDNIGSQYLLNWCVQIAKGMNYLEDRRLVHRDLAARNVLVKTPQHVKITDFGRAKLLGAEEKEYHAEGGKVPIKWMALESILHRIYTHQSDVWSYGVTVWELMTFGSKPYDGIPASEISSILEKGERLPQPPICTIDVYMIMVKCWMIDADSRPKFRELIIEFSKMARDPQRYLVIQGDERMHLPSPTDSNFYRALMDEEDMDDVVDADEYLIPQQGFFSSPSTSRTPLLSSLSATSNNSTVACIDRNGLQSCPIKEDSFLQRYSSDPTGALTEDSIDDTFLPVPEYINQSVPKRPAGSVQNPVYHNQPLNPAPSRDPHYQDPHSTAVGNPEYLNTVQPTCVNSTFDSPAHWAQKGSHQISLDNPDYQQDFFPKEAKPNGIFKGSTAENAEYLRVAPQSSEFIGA
Assay: Cell proliferation inhibition experiment (CellTiter-Glo), Ba/F3 L858R/T790M/C797S
Format: cell-based
Settings: 72 hours, Cell Titer-Glo, read-out: Ba/F3 (L858R/T790M/C797S) IC50

INPUT: For the molecule COc1cc(N2CCOCC2)c(-c2cnn(C)c2)cc1Nc1nccc(Nc2ccc3nccnc3c2P(C)(C)=O)n1 [Compound 42] , give its reported GI50.
OUTPUT: 69.2 nM

INPUT: For the molecule COc1cc(N2CCC(N3CCOC(C)C3)CC2)c(-c2cnn(C)c2)cc1Nc1ncc(Br)c(Nc2ccc3nccnc3c2P(C)(C)=O)n1 (racemic) [compound 148] , give its reported GI50.
OUTPUT: 2.78 nM

INPUT: For the molecule COc1cc(N2CCOCC2)c(-c2cnn(C)c2)cc1Nc1ncc(Br)c(Nc2ccc3ncccc3c2P(C)(C)=O)n1 [compound 160] , give its reported GI50.
OUTPUT: 9.04 nM

INPUT: For the molecule COc1cc(N2CCN3CCC[C@@H]3C2)c(-c2cnn(C)c2)cc1Nc1ncc(Br)c(Nc2ccc3nccnc3c2P(C)(C)=O)n1 [compound 176] , give its reported GI50.
OUTPUT: 5.96 nM

INPUT: For the molecule COc1cc(N2C[C@@H]3C[C@H]2CO3)c(-c2cnn(C)c2)cc1Nc1ncc(Br)c(Nc2ccc3nccnc3c2P(C)(C)=O)n1 [compound 107] , give its reported GI50.
OUTPUT: 30.9 nM

INPUT: For the molecule COc1cc(N2CCC3(CCN(CC4(C#N)CC4)CC3)CC2)c(-c2cnn(C)c2)cc1Nc1ncc(Br)c(Nc2ccc3nccnc3c2P(C)(C)=O)n1 [compound 244] , give its reported GI50.
OUTPUT: 2.43 nM

---

Kindly supply the reported IC50 values for the records listed here.
Target: L858R/T790M/C797S triple mutant EGFR (Homo sapiens, UniProt P00533, C797S/L858R/T790M)
Construct: purchased Signalchem
Sequence (P00533 25-1210 T790M/C797S/L858R): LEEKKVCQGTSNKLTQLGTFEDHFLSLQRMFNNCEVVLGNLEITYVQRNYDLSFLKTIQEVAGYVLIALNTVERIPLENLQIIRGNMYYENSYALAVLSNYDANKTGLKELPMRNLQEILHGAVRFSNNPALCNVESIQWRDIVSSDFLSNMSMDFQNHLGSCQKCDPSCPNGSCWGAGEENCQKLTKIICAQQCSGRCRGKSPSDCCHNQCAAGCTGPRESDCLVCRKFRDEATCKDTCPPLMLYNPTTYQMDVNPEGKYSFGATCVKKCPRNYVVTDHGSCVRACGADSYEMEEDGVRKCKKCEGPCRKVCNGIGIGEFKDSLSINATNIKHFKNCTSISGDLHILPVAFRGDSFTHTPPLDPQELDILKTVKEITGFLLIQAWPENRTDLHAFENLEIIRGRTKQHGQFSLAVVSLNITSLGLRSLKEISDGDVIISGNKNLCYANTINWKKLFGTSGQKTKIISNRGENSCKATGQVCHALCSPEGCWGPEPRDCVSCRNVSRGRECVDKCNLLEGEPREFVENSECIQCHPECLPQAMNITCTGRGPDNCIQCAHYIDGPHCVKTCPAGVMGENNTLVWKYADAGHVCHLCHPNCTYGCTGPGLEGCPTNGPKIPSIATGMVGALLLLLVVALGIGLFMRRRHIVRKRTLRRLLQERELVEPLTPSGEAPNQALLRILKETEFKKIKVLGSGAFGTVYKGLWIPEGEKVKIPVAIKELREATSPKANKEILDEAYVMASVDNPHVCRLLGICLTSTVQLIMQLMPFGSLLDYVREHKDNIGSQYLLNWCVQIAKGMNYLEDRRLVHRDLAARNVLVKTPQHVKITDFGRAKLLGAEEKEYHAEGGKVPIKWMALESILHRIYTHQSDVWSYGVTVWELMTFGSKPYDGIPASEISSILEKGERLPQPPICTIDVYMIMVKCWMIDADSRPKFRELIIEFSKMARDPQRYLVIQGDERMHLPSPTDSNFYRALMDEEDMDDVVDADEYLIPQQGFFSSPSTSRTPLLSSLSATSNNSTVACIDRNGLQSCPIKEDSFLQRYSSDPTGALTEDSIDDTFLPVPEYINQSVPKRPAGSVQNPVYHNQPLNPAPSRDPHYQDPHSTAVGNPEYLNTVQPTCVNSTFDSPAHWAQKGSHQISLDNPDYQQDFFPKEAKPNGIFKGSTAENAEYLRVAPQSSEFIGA
Assay: Enzymology experiment in vitro (HTRF/FRET kinase activity), L858R/T790M/C797S triple mutant EGFR
Format: biochemical
Details: HTRF KinEASE-TK, read-out: EGFR (L858R/T790M/C797S) IC50
State just the number; it will be interpreted in nM.

INPUT: For the compound COc1cc(N2CCOCC2)c(-c2cnn(C)c2)cc1Nc1ncc(Br)c(Nc2cc3c(cc2N(C)S(C)(=O)=O)CC3)n1 , give its reported IC50.
OUTPUT: 1.16

INPUT: For the compound COc1cc(N2CC3CN(CCF)CC3C2)c(-c2cnn(C)c2)cc1Nc1ncc(Br)c(Nc2ccc3nccnc3c2P(C)(C)=O)n1 (stereo not drawn) , give its reported IC50.
OUTPUT: 0.12

INPUT: For the compound CN1CCOc2c(Nc3ncc(Br)c(Nc4ccc5nccnc5c4P(C)(C)=O)n3)cc(-c3cnn(C)c3)cc21 , give its reported IC50.
OUTPUT: 0.37

INPUT: For the compound COC[C@@H]1CN(c2cc(OC)c(Nc3ncc(Br)c(Nc4ccc5nccnc5c4P(C)(C)=O)n3)cc2-c2cnn(C)c2)CCO1 , give its reported IC50.
OUTPUT: 0.24

INPUT: For the compound CCN1CCN(c2cc(OC)c(Nc3ncc(Br)c(Nc4ccc5nccnc5c4P(C)(C)=O)n3)cc2-c2cnn(C)c2)CC1 , give its reported IC50.
OUTPUT: 0.11

INPUT: For the compound COc1cc(N2CCN(CC3CC3)CC2)c(-c2cnn(C)c2)cc1Nc1ncc(Br)c(Nc2ccc3cncnc3c2P(C)(C)=O)n1 , give its reported IC50.
OUTPUT: 0.21

---

Tested on: EGFR wild-type cell line A431
Test: Cell proliferation inhibition experiment (CellTiter-Glo), A431
Type: cell-based
Settings: Homo sapiens, A-431; A431 cells, 72 hours, Cell Titer-Glo; read-out: A431 EGFR WT IC50
Structures can show the parent of a compound that is named as a salt.
Sorting guide: entries reporting IC50 beneath 0.6 µM go in the 1.0 pile, the rest go in the 0.0 pile.

INPUT: Quick check: IC50 of COc1cc(N2CCC(N3CCN(C)CC3)CC2)ccc1Nc1ncc(Cl)c(Nc2ccccc2P(C)(C)=O)n1 [Brigatinib, reference compound] under 0.6 µM?
OUTPUT: 0.0

INPUT: Quick check: IC50 of COc1nc(N2CCC3(CC2)COC3)c(-c2cnn(C)c2)cc1Nc1ncc(Br)c(Nc2ccc3nccnc3c2P(C)(C)=O)n1 under 0.6 µM?
OUTPUT: 0.0

INPUT: Quick check: IC50 of COc1cc(N2CCC3(CC2)CN(C)C3)c(-c2cnn(C)c2)cc1Nc1ncc(Br)c(Nc2ccc3nccnc3c2P(C)(C)=O)n1 [Compound 16, formate] under 0.6 µM?
OUTPUT: 1.0

INPUT: Quick check: IC50 of CCOP(C)(=O)c1c(Nc2nc(Nc3cc(-c4cnn(C)c4)c(N4CCOCC4)c(F)c3OC)ncc2Br)ccc2nccnc12 (centres unmarked) under 0.6 µM?
OUTPUT: 1.0

INPUT: Quick check: IC50 of COCCN1CCN(C2CCN(c3cc(OC)c(Nc4ncc(Br)c(Nc5ccc6nccnc6c5P(C)(C)=S)n4)cc3-c3cnn(C)c3)CC2)CC1 under 0.6 µM?
OUTPUT: 1.0

---

Target: wild-type EGFR (Homo sapiens, UniProt P00533)
Construct: purchased Signalchem
Sequence (P00533 25-1210): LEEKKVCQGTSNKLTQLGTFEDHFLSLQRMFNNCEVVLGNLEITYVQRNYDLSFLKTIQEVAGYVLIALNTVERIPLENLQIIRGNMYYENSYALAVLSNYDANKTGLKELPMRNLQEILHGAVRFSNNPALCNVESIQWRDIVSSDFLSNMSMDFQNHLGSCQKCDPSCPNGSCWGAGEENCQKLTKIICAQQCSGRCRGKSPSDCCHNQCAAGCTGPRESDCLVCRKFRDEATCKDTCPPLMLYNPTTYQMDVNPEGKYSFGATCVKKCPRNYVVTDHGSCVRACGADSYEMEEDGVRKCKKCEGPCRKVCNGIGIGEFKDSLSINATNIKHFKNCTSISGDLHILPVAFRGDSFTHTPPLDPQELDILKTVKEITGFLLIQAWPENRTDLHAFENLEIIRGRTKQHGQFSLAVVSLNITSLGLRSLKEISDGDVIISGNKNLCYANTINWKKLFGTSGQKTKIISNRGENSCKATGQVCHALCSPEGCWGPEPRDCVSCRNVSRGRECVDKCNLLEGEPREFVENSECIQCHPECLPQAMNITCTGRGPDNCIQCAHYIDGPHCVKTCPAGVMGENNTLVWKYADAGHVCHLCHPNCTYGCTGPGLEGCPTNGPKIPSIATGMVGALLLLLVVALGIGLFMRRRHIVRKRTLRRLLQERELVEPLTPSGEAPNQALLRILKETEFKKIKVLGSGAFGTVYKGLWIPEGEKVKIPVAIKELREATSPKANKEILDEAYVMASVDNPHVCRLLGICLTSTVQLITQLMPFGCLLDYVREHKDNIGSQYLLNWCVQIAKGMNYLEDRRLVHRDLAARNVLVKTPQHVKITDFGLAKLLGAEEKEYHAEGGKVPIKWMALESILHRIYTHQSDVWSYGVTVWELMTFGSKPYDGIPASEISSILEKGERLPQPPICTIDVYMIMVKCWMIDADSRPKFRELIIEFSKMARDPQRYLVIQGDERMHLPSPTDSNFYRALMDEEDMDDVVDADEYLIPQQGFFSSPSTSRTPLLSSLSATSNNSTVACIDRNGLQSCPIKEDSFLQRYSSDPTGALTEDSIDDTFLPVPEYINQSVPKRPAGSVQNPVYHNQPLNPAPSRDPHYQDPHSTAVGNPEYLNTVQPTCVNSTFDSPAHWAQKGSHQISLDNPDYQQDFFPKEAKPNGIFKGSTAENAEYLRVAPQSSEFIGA
Experiment: Enzymology experiment in vitro (HTRF/FRET kinase activity), wild-type EGFR
Type: biochemical
Details: HTRF KinEASE-TK, read-out: EGFR (WT) IC50
PARAMETER MEASURED: log10(IC50) (log10 of the value in nM)
Kindly note that the scale is log10 and the underlying IC50 is in nM.

INPUT: For the compound COc1cc(NC(C)C(F)(F)F)c(-c2cnn(C)c2)cc1Nc1ncc(Br)c(Nc2ccc3nccnc3c2P(C)(C)=O)n1 (stereo not drawn) , give its reported log10(IC50).
OUTPUT: 1.57

INPUT: For the compound COc1cc(N2CCN(CCF)CC2)c(-c2cnn(C)c2)cc1Nc1ncc(Br)c(Nc2cc3c(cc2P(C)(C)=O)CC3)n1 , give its reported log10(IC50).
OUTPUT: 1.49

INPUT: For the compound COc1cc(N2CCN(C)CC2)c(-c2cnn(C)c2)cc1Nc1ncc(Br)c(Nc2ccc3nccnc3c2P(C)(C)=O)n1 , give its reported log10(IC50).
OUTPUT: -0.77

INPUT: For the compound COc1cc(N2CCC3(CC2)CO[C@@H](C)[C@@H]3N(C)C)c(-c2cnn(C)c2)cc1Nc1ncc(Br)c(Nc2ccc3nccnc3c2P(C)(C)=O)n1 (stereo in doubt) , give its reported log10(IC50).
OUTPUT: 0.84

INPUT: For the compound COc1cc(N2CCN(C(C)C)CC2)c(-c2cnn(C)c2)cc1Nc1ncc(Br)c(Nc2ccc3nccnc3c2P(C)(C)=O)n1 , give its reported log10(IC50).
OUTPUT: 0.63

INPUT: For the compound COc1cc(N2CCC(N3CCC(F)CC3)CC2)c(-c2cnn(C)c2)cc1Nc1ncc(Br)c(Nc2ccc3nccnc3c2P(C)(C)=O)n1 , give its reported log10(IC50).
OUTPUT: 0.15

---

Target: Ba/F3 L858R/T790M/C797S EGFR triple mutant cell line (Homo sapiens, UniProt P00533, T790M/C797S/L858R, cells depend on it)
Assay: Cell proliferation inhibition experiment (CellTiter-Glo), Ba/F3 L858R/T790M/C797S
Type: cell-based
Conditions: 72 hours, Cell Titer-Glo, read-out: Ba/F3 (L858R/T790M/C797S) IC50
PARAMETER MEASURED: GI50 (nM)
State just the number; it will be interpreted in nM.

INPUT: For the compound COc1cc(N2CCC3(CC2)CCN(C(C)CF)CC3)c(-c2cnn(C)c2)cc1Nc1ncc(Br)c(Nc2ccc3nccnc3c2P(C)(C)=O)n1 (stereo not shown) [compound 246] , give its reported GI50.
OUTPUT: 3.64

INPUT: For the compound COc1cc(N2CCC3(CCN(CCF)CC3)CC2)c(-c2cnn(C)c2)cc1Nc1ncc(Br)c(Nc2ccc3nccnc3c2P(C)(C)=O)n1 [compound 133] , give its reported GI50.
OUTPUT: 2.85

INPUT: For the compound COCC1CCCN(c2cc(OC)c(Nc3ncc(Br)c(Nc4ccc5nccnc5c4P(C)(C)=O)n3)cc2-c2cnn(C)c2)C1 (stereo not shown) [compound 162] , give its reported GI50.
OUTPUT: 18

INPUT: For the compound CCOc1nc(N2CCOCC2)c(-c2cnn(C)c2)cc1Nc1ncc(Br)c(Nc2ccc3nccnc3c2P(C)(C)=O)n1 [compound 36] , give its reported GI50.
OUTPUT: 17.7

INPUT: For the compound COc1cc(N2CCOCC2)c(-c2cccs2)cc1Nc1ncc(Br)c(Nc2ccc3nccnc3c2P(C)(C)=O)n1 [compound 83] , give its reported GI50.
OUTPUT: 58.9

INPUT: For the compound COc1cc(N2CCC(C)(OC)CC2)c(-c2c[nH]n(C)c2=O)cc1Nc1ncc(Br)c(Nc2ccc3nccnc3c2P(C)(C)=O)n1 [compound 241] , give its reported GI50.
OUTPUT: 12.3

INPUT: For the compound COc1cc(N2CCC3(CC2)CCN(C(C)C)CC3)c(-c2cnn(C)c2)cc1Nc1ncc(Br)c(Nc2ccc3nccnc3c2P(C)(C)=O)n1 [compound 228] , give its reported GI50.
OUTPUT: 8.5

INPUT: For the compound COc1nc(N2CCC3(CCN(CCF)CC3)CC2)c(-c2cnn(C)c2)cc1Nc1ncc(Br)c(Nc2ccc3nccnc3c2P(C)(C)=O)n1 [compound 249] , give its reported GI50.
OUTPUT: 8.95

INPUT: For the compound Cn1cc(-c2cc(Nc3ncc(Br)c(Nc4ccc5nccnc5c4P(C)(C)=O)n3)c3c(c2N2CCOCC2)CCCO3)cn1 [compound 51] , give its reported GI50.
OUTPUT: 36.8

INPUT: For the compound COc1cc(N2CCN(S(C)(=O)=O)CC2)c(-c2cnn(C)c2)cc1Nc1ncc(Br)c(Nc2ccc3nccnc3c2P(C)(C)=O)n1 [compound 110] , give its reported GI50.
OUTPUT: 10.9

INPUT: For the compound COc1cc(N2CCC(OC)C2)c(-c2cnn(C)c2)cc1Nc1ncc(Br)c(Nc2ccc3nccnc3c2P(C)(C)=O)n1 (stereo not shown) [compound 128] , give its reported GI50.
OUTPUT: 11.9

INPUT: For the compound [2H]C([2H])([2H])OCCN1CCN(c2cc(OC)c(Nc3ncc(Br)c(Nc4ccc5nccnc5c4P(C)(C)=O)n3)cc2-c2cnn(C)c2)CC1 [compound 181] , give its reported GI50.
OUTPUT: 9.67

INPUT: For the compound COc1cc(N2CCC(N3CCC(OC)CC3)CC2)c(-c2cnn(C)c2)cc1Nc1ncc(Br)c(Nc2ccc3nccnc3c2P(C)(C)=O)n1 [compound 179] , give its reported GI50.
OUTPUT: 6.84
